Hello, the source for this data is patent US20220048967A1, in case you need it.

Target: T1, human GIP receptor (human, UniProt P48546 22-466)
T1 sequence (looked up): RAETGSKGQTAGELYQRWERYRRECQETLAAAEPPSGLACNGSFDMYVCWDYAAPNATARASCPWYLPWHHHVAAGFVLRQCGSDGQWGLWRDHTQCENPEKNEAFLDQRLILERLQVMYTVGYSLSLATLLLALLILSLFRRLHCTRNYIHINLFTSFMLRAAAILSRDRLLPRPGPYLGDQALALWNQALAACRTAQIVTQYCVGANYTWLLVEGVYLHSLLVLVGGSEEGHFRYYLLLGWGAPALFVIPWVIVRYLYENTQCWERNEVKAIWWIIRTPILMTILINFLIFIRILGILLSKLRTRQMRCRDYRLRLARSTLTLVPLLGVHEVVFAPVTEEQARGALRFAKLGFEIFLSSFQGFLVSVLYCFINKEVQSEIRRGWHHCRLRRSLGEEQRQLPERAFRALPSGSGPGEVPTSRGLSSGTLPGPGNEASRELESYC
Assay: cell-based or functional assay
Square brackets hold non-standard residues; d marks the D form. Side chains are listed from the residue outwards. Ends that are not written are not given here. * marks the point of attachment. C20 diacid = O=C(O)CCCCCCCCCCCCCCCCCCC(=O)*; αMeF = C[C@](N)(Cc1ccccc1)C(=O)O; αMeK = C[C@](N)(CCCCN)C(=O)O; Dab = NCC[C@H](N)C(=O)O; AEEA = NCCOCCOCC(=O)O; Aib = CC(C)(N)C(=O)O

binder	hGIPR cAMP Rel EC50 (nM)
YXEGTFTSDYSILLDKKAQXAFIEYLIXGGPSSGAPPPS (Aib2; K17((2-[2-(2-Amino-ethoxy)-ethoxy]-acetyl)2-(γ-Glu)-CO-(CH2)18-CO2H); Aib20; D-Glu28; C-terminal NH2) [Example 83]	0.182
YXEGTXTSDYSILLDKIAQXAFIEYLIKGG (Aib2; αMeF6; Aib20; K28((2-[2-(2-Amino-ethoxy)-ethoxy]-acetyl)2-(γ-Glu)-CO-(CH2)18-CO2H); C-terminal NH2) [Example 95]	1.17
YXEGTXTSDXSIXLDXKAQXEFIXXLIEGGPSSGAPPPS (Aib2; αMeF(2F)6; 4Pal10; αMeL13; Orn16; K17((2-[2-(2-Amino-ethoxy)-ethoxy]-acetyl)2-(γ-Glu)-CO-(CH2)16-CO2H); Aib20; D-Glu24; αMeY25; C-terminal NH2) [Example 4]	0.0272
YXEGTFTSDYSILLDKKAQXAXIEYLIEGGPSSGAPPPS (Aib2; K17((2-[2-(2-Amino-ethoxy)-ethoxy]-acetyl)2-(γ-Glu)-CO-(CH2)18-CO2H); Aib20; αMeF22; C-terminal NH2) [Example 67]	0.0913
Y[Aib]EGTFTSDYSILLDKIAQ[Aib]AFIKYLIEGGPSSGAPPPS-NH2 (not fully specified (residue 24)) [Example 34]	0.36
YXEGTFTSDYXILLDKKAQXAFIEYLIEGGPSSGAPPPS (Aib2; αMeS11; K17((2-[2-(2-Amino-ethoxy)-ethoxy]-acetyl)2-(γ-Glu)-CO-(CH2)18-CO2H); Aib20; C-terminal NH2) [Example 68]	0.0881
Y[Aib]EGTFTSDYSILLDKIAQKEFIQYLLE[Aib]GPSSGAPPPS-NH2 (not fully specified (residue 20)) [Example 14]	0.284
H[Aib]EGTFTSDYSI[αMeF]LDKK([Dab-AEEA-Dab-AEEA-C20 diacid])AQ[αMeK]AFIQYLLA[Aib]GPSSGAPPPS-NH2 [Example 19]	0.386
H[Aib]EGTFTSDYSI[αMeF]LDKK([Dab-AEEA-Dab-AEEA-C20 diacid])AQ[αMeK]AFIQYLLA[Aib]GPSSGAPKPS-NH2 [Example 18]	0.61
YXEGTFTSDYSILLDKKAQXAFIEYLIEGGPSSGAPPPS (Aib2; K17((2-[2-(2-Amino-ethoxy)-ethoxy]-acetyl)-(γ-Glu)-(Trx)-CO-(CH2)18-CO2H); Aib20; C-terminal NH2) [Example 110]	0.218
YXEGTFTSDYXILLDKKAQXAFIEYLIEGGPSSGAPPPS (Aib2; D-Ser11; K17((2-[2-(2-Amino-ethoxy)-ethoxy]-acetyl)2-(γ-Glu)-CO-(CH2)18-CO2H); Aib20; C-terminal NH2) [Example 81]	0.428
